Listed next: entries and their corresponding MIC.
- System: Shigella flexneri
- experimentalDetails: Antibacterial activity against Shigella flexneri by agar dilution method
- Type: functional
quantityMeasured: MIC

[
  {
    "compound": "O=C(O)c1cn(C2CC2)c2cc(N3CCNCC3)c(F)cc2c1=O [CIPROFLOXACIN]",
    "testValue": "0.1 to 2.5 µg/mL"
  },
  {
    "compound": "CCn1cc(C(=O)O)c(=O)c2cc(F)c(N3CCN(CN4C(=O)C(=O)c5cc(C)ccc54)C(C)C3)c(F)c21 (stereo unspecified)",
    "testValue": "0.25 to 2.5 µg/mL"
  },
  {
    "compound": "CCn1cc(C(=O)O)c(=O)c2cc(F)c(N3CCN(CN4C(=O)C(=O)c5ccccc54)C(C)C3)c(F)c21 (stereo unspecified)",
    "testValue": "0.25 to 2.5 µg/mL"
  },
  {
    "compound": "Cc1ccc2c(c1)C(=O)C(=O)N2CN1CCN(c2cc3c(cc2F)c(=O)c(C(=O)O)cn3C2CC2)CC1",
    "testValue": "0.1 to 0.5 µg/mL"
  },
  {
    "compound": "CCn1cc(C(=O)O)c(=O)c2cc(F)c(N3CCNC(C)C3)c(F)c21 (stereo unspecified) [LOMEFLOXACIN]",
    "testValue": "0.1 to 2.5 µg/mL"
  },
  {
    "compound": "O=C1C(=O)N(CN2CCN(c3cc4c(cc3F)c(=O)c(C(=O)O)cn4C3CC3)CC2)c2ccccc21",
    "testValue": "0.1 to 0.5 µg/mL"
  }
]
